# procedure-summary: probe aDKK1 binding to arrayed compounds – biochemical, biotinylated probe, 635/667 nm fluorescence, primary screen (AID 1099);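 further: score merges 667nm spot fluorescence with signal to noise across triplicate slides; reference of the scale not given here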
# measurement-context: small-molecule microarray, higher = more signal
Please enter label 1 where composite z-score is greater than or equal to -0.1, and label 0 where it is lower.

Reference set (6 entries):
molecule	class
CC(C)[Si](C#CCCc1ccccc1)(O[C@H](c1ccccc1)c1cn(Cc2ccccc2)nn1)C(C)C	label 1
CCCCCCc1nc(-c2ccc(-c3ccc(Cl)c(Cl)c3)o2)cc2c1[Si](C(C)C)(C(C)C)OC2	label 0
C=C(CCCC)C(=O)CC[C@@H](OC(=O)c1ccccc1-c1ccccc1C(=O)O)c1ccccc1OCCO	label 0
COc1ccc(C(O)C2C=CC3C(=O)N(C)C(=O)C3N2N(c2ccccc2)c2ccccc2)cc1 (stereo not drawn)	label 1
COC(=O)[C@]1(CCC(=O)OC(C)(C)C)N=C(c2ccc(OCCCO)cc2)O[C@@H]1c1ccccc1N=[N+]=[N-]	label 1
CCC(CC)C(O)C1C=CC2C(=O)N(c3ccccc3)C(=O)C2N1Nc1ccccc1F (stereo not drawn)	label 1

Could you please find out whether COc1ccc([Si](C)(C)[C@@H]2[C@@H](CC(=O)N3Cc4ccccc4C[C@H]3CO)O[C@]3(C(=O)N(Cc4ccc(N5CCOC5=O)cc4)c4ccccc43)[C@H]2C)cc1 has composite z-score that meets -0.1 or exceeds it?
label 0

COCCOC(=O)N1C(=O)[C@@]2(c3cc(C#CCC(C(=O)OC)C(=O)OC)ccc31)[C@H](C(=O)Nc1nc3ccccc3s1)[C@H]1C(=O)O[C@H](c3ccccc3)[C@H](c3ccccc3)N1[C@@H]2c1ccc(O)cc1 , same question.
label 1

Also C=CCN1Cc2ccccc2[C@H]2OC(c3ccc(OCCCO)cc3)=N[C@@]2(CCS(=O)(=O)c2ccccc2)C1=O ?
label 1

---

The following molecules are listed with their measured composite z-score values.
# subject-of-test: Neurogenic locus notch homolog protein 2 (Homo sapiens) (UniProt Q04721)
# Sequence (Q04721 whole entry, looked up): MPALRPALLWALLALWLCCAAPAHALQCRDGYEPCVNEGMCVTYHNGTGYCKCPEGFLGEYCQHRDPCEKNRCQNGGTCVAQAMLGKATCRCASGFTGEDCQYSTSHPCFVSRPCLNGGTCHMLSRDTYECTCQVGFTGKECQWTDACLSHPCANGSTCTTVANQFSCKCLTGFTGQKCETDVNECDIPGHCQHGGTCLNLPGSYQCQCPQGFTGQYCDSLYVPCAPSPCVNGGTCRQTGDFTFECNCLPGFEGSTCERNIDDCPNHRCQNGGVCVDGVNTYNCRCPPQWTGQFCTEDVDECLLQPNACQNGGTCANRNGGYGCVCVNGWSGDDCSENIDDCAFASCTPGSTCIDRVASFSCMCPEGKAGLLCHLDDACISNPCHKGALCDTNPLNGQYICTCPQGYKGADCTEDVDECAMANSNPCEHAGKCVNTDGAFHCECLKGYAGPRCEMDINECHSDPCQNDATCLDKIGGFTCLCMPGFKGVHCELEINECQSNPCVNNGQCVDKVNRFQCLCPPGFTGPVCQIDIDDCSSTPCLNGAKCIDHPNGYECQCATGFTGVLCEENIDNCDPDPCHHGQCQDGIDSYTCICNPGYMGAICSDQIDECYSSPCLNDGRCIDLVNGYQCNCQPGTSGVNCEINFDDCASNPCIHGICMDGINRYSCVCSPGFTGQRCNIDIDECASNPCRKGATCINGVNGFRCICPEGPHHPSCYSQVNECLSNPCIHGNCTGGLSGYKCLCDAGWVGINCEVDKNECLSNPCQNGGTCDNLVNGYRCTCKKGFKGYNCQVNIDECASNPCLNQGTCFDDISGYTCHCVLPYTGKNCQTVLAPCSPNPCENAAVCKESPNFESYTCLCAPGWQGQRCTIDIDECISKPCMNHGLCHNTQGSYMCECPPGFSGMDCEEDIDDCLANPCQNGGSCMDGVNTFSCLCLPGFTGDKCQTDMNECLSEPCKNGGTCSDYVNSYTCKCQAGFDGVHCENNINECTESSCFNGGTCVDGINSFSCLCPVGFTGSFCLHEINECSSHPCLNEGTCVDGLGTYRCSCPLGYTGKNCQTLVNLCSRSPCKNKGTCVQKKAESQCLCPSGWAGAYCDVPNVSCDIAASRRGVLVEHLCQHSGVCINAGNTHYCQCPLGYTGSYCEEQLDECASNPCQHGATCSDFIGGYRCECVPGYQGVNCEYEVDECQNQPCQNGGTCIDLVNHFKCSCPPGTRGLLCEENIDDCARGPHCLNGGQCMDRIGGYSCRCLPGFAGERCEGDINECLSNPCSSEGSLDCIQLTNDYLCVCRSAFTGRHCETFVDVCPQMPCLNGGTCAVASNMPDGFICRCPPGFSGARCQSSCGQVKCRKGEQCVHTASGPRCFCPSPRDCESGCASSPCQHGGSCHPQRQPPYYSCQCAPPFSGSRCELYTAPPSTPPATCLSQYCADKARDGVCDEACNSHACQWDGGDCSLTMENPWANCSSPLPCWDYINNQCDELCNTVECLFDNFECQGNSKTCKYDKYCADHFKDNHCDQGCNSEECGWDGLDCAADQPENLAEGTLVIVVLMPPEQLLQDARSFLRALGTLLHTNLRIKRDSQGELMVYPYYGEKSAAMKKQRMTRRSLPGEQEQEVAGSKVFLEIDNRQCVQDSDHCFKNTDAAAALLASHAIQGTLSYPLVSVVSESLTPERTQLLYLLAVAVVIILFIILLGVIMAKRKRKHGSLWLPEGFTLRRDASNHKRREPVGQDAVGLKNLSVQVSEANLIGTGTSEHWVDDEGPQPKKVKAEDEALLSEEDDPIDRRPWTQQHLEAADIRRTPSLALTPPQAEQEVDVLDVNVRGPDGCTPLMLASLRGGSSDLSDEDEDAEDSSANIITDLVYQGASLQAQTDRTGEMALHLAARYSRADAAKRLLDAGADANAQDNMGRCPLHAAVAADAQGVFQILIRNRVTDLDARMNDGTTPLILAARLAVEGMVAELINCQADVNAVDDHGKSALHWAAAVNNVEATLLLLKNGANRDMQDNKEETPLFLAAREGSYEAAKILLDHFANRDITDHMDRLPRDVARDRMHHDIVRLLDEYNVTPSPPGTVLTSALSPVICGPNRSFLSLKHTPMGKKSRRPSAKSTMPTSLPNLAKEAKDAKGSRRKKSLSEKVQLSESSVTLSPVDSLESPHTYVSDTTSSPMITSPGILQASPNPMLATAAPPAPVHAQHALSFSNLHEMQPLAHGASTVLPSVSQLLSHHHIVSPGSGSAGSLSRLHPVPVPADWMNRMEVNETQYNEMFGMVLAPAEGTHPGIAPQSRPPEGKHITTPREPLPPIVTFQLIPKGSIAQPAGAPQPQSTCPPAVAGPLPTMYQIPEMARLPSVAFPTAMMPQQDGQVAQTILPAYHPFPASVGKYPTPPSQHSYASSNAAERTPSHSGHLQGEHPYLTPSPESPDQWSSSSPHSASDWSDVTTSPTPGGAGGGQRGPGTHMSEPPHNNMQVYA
# procedure-summary: small molecules binding Notch2 protein – biochemical, small-molecule microarray, 635 nm fluorescence, stem cell growth factors, primary screen (AID 1073)
# measurement-context: higher = more signal

// solved cases for composite z-score follow
molecule	value-reported
O=C1O[C@@H](c2ccccc2)[C@@H](c2ccccc2)N2[C@@H](c3ccc(OCCO)cc3)[C@]3(C(=O)Nc4ccc(C#CC5(O)CCCCCC5)cc43)[C@@H](C(=O)O)[C@H]12	0.456
C=CCC(OC(C)=O)[C@@H]1[C@@H](N(Cc2cccc3ccccc23)C(=O)Cc2ccc(OC)cc2)c2cc(OCCCO)ccc2N1C(=O)Cc1ccc2ccccc2c1 (some centres undefined)	-0.529
CC(C)C[C@@H]1NC(=O)[C@@H]2C[C@H](C(=O)NCCCCCCNC(=O)CS)[C@H](c3cccc(OCCO)c3)N2C1=O	1.34

Now turn to the next molecule.
Which composite z-score is reported for this molecule? CC(C)(C)OC(=O)CC[C@]1(C(=O)NCC(O)CO)N=C(c2ccc(OCCCO)cc2)O[C@H]1c1ccccc1N=[N+]=[N-] (some centres undefined)
1.02

---

# procedure-summary: probe aEGFR binding to arrayed compounds – biochemical, biotinylated probe, 635/667 nm fluorescence, primary screen (AID 1097);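 further: probe is a biotinylated anti-EGFR antibody binding compounds printed on slides; score combines fluorescence near 667 nm and signal to noise of each spot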
# measurement-context: small-molecule microarray, higher = more signal
# binarize composite z-score: threshold 0.02 inclusive, high side satisfied, low side not satisfied

molecule	class
COc1ccc([Si](C)(C)[C@@H]2[C@@H](CC(=O)N(CCO)Cc3ccccc3)O[C@]3(C(=O)N(Cc4ccc(I)cc4)c4ccccc43)[C@H]2C)cc1	satisfied
CC(C)=CCCC=C(C)C(O)C1C=CC2C(=O)N(c3ccccc3)C(=O)C2N1Nc1ccc(C#N)cc1 (stereo not drawn)	not satisfied

Check if composite z-score >= 0.02 (inclusive). Item: CC(C)c1nc2cc(Br)ccc2c(=O)o1
not satisfied

Next molecule: C=CCNC(=O)[C@H]1[C@@H]2C(=O)O[C@@H](c3ccccc3)[C@@H](c3ccccc3)N2[C@@H](c2ccc(OCCO)cc2)[C@]12C(=O)Nc1ccc(C#CC3(O)CCCCCC3)cc12
satisfied

Also need COC(=O)[C@@]1(Cc2ccccc2)[C@H]2c3cc(C(=O)N(C)C)n(CCSC(=N)N)c3C[C@H]2CN1C(=O)c1ccccc1 , thanks.
not satisfied

Here is the next molecule: CC(C)C(=C=CC[C@H](O)c1ccccc1OCCO)C[C@H](O)COCc1ccccc1
not satisfied

Okay, and CC(C)(C)OC(=O)CC[C@@]1(C(=O)NCCN2CCOCC2)N=C(c2ccc(OCCCO)cc2)O[C@@H]1c1ccccc1CN=[N+]=[N-] ?
not satisfied

Could you do the same for CCCC[C@H]1C[C@@H]1[C@@H]1N(C(C)=O)[C@H](c2cccc(OC)c2)CC12CC2 , please?
not satisfied
